- system.name: T1, human CD30 (commercial, conjugated to digoxigenin) (human, UniProt P28908 19-379, limits assumed, conjugated to digoxigenin (DIG))
- T1 sequence (looked up): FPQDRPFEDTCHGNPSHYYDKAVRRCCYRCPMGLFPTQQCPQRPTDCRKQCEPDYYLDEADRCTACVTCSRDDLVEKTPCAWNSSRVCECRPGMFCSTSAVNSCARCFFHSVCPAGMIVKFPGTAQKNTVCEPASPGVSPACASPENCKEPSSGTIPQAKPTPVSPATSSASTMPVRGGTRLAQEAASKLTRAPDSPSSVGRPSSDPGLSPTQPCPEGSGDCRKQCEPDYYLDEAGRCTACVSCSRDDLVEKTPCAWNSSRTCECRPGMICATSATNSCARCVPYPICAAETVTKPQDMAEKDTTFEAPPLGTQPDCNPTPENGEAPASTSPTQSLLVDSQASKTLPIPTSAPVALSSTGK
- method.description: AlphaScreen competition
parameter.measured: Fold IC50 vs H3/L3 (fold)

binder	recorded.number
AC10 H3.48/L3 (antibody, IgG1, name in Kabat numbering, V domains shown) VH: QIQLVQSGPEVKKPGASVKVSCKASGYTFTDYYITWVRQAPGQGLEWMGWIYPGSGNTKYNEKFQGRFVFSVDTSASTAYLQISSLKAEDTAVYYCANYGNYWFAYWGQGTLVTVSS VL: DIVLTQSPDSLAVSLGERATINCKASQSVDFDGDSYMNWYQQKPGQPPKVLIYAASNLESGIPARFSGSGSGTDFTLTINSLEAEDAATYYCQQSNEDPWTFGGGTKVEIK	1.6
AC10 H3.46/L3 (antibody, IgG1, name in Kabat numbering, V domains shown) VH: QIQLVQSGPEVKKPGASVKVSCKASGYTFTDYYITWVRQAPGQGLEWMGWIYPGSGNTKYNEKFQGRFVFSVDTSASTAYLQISSLKAEDTAMYFCANYGNYWFAYWGQGTLVTVSS VL: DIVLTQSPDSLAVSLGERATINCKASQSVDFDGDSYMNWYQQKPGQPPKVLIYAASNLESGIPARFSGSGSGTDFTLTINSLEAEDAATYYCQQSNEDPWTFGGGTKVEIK	1.39
AC10 H3.43/L3 (antibody, IgG1, name in Kabat numbering, V domains shown) VH: QIQLVQSGPEVKKPGASVKVSCKASGYTFTDYYITWVRQAPGQGLEWMGWIYPGSGNTKYNEKFQGRFVFSMDTSASTAYLQISSLKAEDTAVYFCANYGNYWFAYWGQGTLVTVSS VL: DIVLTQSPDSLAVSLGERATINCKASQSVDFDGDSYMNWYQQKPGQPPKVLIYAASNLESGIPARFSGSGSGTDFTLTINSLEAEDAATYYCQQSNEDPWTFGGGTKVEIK	0.88

Entry source: patent US7657380
